assay.comment: Acute toxicity by injection (LD50)
Set-up: species or system weißen Ratten und Mäusen
conditions.used: in vivo, white rats and mice, read-out: akute Toxizität (=LD₅₀)
measurement.label: LD50

Q: I am curious: what LD50 value has been reported for COC1CC(CC2CCC(C)C(C(C)C(=O)O)O2)OC2(OC(C)(C3CCC(C)(C4OC(C5OC(O)(CO)C(C)CC5C)CC4C)O3)CC2C)C1C (stereo not shown) [Nigerizin] ?
Result: 55 to 66 mg/kg
